Biological target: hmGluR1 receptor (Homo sapiens)
Construct: expressed in transfected cells
Test: IC50 determination: intracellular calcium mobilization (FLIPR) upon Quisqualate stimulation in CHO cells stably expressing hmGluR1
Format: cell-based
Settings: against Quisqualate 1 μM (EC80), class symbols, read-out: mGIuR 1 IC50
pIC50: −log10 of the molar value.
Reported values of pIC50 for individual entries

These solved cases illustrate the format of a correct answer.
>  <Compound>
C#CCN(C)c1ccnc2sc3c(=O)n(-c4ccc(C)cc4)cnc3c12 [28AB]

>  <Observed>
> 7.30

$$$$
>  <Compound>
Cc1ccc(-n2cnc3c(sc4nccc(OCCO)c43)c2=O)cc1 [66E]

>  <Observed>
< 6.00

$$$$
>  <Compound>
CN(C)c1c(C(N)=O)cnc2sc3c(=O)n(C4CCCCC4)cnc3c12

>  <Observed>
< 6.00

$$$$

For record Cc1cc(-n2cnc3c(sc4nccc(N(C)C)c43)c2=O)no1 [15AE] the listed pIC50 is 6.82 to 7.30

Documented pIC50 of CN(C)c1ccnc2c1c1ncn(-c3ccc4ncsc4c3)c(=O)c1n2C [134E] : < 6.00

###

Biological target: hmGluR1 receptor (Homo sapiens, UniProt Q13255)
Construct: expressed in transfected cells
Sequence (Q13255 19-1194): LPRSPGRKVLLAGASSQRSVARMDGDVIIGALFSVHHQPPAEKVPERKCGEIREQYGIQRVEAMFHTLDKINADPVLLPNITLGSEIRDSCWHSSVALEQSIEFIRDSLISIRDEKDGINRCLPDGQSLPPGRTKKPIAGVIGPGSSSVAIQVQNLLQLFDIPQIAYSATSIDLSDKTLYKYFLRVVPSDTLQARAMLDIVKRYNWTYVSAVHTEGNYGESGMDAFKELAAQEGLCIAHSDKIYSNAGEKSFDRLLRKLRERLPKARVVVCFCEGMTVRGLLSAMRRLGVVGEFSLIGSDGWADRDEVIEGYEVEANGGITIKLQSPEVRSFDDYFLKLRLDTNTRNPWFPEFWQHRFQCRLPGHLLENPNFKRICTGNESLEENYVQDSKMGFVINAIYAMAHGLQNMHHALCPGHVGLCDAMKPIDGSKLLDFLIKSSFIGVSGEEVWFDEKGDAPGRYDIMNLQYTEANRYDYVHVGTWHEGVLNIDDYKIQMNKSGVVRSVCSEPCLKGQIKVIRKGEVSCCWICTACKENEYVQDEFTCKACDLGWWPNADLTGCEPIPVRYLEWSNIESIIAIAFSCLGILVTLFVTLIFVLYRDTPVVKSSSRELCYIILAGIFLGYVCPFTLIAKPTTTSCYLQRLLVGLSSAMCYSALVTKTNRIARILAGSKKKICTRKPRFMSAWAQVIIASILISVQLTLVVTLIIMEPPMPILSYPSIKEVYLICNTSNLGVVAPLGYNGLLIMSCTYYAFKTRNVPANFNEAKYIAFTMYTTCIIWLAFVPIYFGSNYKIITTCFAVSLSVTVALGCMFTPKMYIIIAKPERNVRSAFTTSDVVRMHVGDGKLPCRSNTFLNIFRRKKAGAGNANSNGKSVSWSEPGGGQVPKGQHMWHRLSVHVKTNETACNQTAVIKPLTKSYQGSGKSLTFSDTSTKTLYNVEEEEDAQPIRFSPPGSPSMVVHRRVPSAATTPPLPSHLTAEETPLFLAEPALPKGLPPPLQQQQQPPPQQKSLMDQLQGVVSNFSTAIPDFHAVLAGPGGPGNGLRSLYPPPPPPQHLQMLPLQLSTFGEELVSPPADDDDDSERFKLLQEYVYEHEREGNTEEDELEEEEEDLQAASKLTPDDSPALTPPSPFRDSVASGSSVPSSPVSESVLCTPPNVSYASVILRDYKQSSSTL
Assay: IC50 determination: intracellular calcium mobilization (FLIPR) upon Quisqualate stimulation in CHO cells stably expressing hmGluR1
Format: cell-based
Settings: against Quisqualate 1 μM (EC80), class symbols, read-out: mGIuR 1 IC50
pIC50: −log10 of the molar value.
Readout label: pIC50

>  <Compound>
CC1CCC(n2cnc3c(sc4nccc(N(C)C)c43)c2=O)CC1 (centres unmarked) [15Z]

>  <pIC50>
> 7.30

$$$$
>  <Compound>
CNc1ccc(-n2cnc3c(sc4nccc(N(C)C)c43)c2=O)cc1 [7CF]

>  <pIC50>
> 7.30

$$$$
>  <Compound>
CN(C)c1ccnc2sc3c(=O)n(C4CCCCC4)cnc3c12 [7Q]

>  <pIC50>
> 7.30

$$$$

According to the records, this compound CN(C)c1c[n+]([O-])cc2sc3c(=O)n(-c4ccc(Cl)cc4)cnc3c12 [compound 53] displays pIC50 of < 6.00

Input Cc1ccc(-n2cnc3c(sc4nccc(N(C)C)c43)c2=O)cc1C [7CV] . Output pIC50: > 7.30

For record CN(C)c1c(-c2ccc(F)cc2)cnc2sc3c(=O)n(C4CCCCC4)cnc3c12 [47B] the listed pIC50 is < 6.00

The reported pIC50 of the compound Cc1ccc(-n2cnc3c4c(N(C)C)ccnc4n(C)c3c2=O)cc1 [134A] was 6.00 to 6.82

# pIC50 of CCCNc1ccnc2sc3c(=O)n(-c4ccc(C)cc4)cnc3c12 [28AS] = > 7.30

Cc1cc(N(C)C)c2c(n1)sc1c(=O)n(-c3ccc(C(F)(F)F)cc3)cnc12 [7DM] has a reported pIC50 of 6.00 to 6.82

Note to self: pIC50 recorded for CNc1ccnc2sc3c(=O)n(-c4ccc(C)cc4)c(C)nc3c12 [113G] was > 7.30

# compound CN(C)c1ccnc2sc3c(=O)n(-c4ccc5occc5c4)cnc3c12 [7BY] ; its pIC50 = > 7.30

###

Reported pIC50 values follow for various compounds
Target: hmGluR1 receptor (Homo sapiens)
Construct: expressed in transfected cells
Assay: IC50 determination: intracellular calcium mobilization (FLIPR) upon Quisqualate stimulation in CHO cells stably expressing hmGluR1
Format: cell-based
Settings: against Quisqualate 1 μM (EC80), FLIPR calcium mobilization, read-out: IC50 Class
pIC50: −log10 of the molar value.

Entry Cc1ccc(-n2cnc3c(sc4nccc(NC5CC5)c43)c2=O)c(F)c1 [131M] — recorded pIC50 = 6.82 to 7.30

In plain terms, CCNc1ccnc2sc3c(=O)n(-c4cccc(Br)c4)cnc3c12 [28CR] has a documented pIC50 of 6.82 to 7.30

For this compound ( C#CCNc1ncnc2sc3c(=O)n(-c4ccc5scnc5c4)cnc3c12 [95EL] ), measured pIC50 is > 7.30

Reported pIC50 for COc1ccc(-n2cnc3c(sc4ncnc(OC)c43)c2=O)cc1 [95GO] was < 6.00

Reported pIC50 ( C#CCNc1ncnc2sc3c(=O)n(-c4ccc(OC)cc4F)cnc3c12 [95EJ] ) = 6.82 to 7.30

Briefly, pIC50 measured for COc1ccnc2sc3c(=O)n(-c4ccc(Cl)cc4C)cnc3c12 [28FU] : < 6.00

# pIC50 (compound: O=c1c2sc3ncccc3c2ncn1-c1ccc(Cl)cc1 [183B] ) is 6.00 to 6.82

Quick note, pIC50 for C=C(C)CNc1ncnc2sc3c(=O)n(-c4ccccc4)cnc3c12 [95FH] landed at > 7.30

###

Biological target: hmGluR1 receptor (Homo sapiens, UniProt Q13255)
Construct: expressed in transfected cells
Experiment: IC50 determination: intracellular calcium mobilization (FLIPR) upon Quisqualate stimulation in CHO cells stably expressing hmGluR1
Assay type: cell-based
Conditions: against Quisqualate 1 μM (EC80), FLIPR calcium mobilization, read-out: IC50 Class
Experimental: A CHO cell line stably expressing hmGluR1 receptor was established. One day prior to assay, cells were split in growth media at concentration of 50,000 cells/well in a volume of 100 μl and seeded into black clear-bottom 96-well plates. After two to six hours, when cells were well attached to the plate, growth medium was replaced with assay medium (100 μL) consisting of DMEM high glucose, supplemented with GPT (1 U/mL) and Sodium pyruvate, 1 mM. […]
pIC50: −log10 of the molar value.
Readout label: pIC50

>  <Compound>
Cc1ccc(-n2cnc3c(sc4nccc(NCCC(C)O)c43)c2=O)cc1 (centres unmarked) [28CY]

>  <Target desc>
hmGluR1 receptor (Homo sapiens, UniProt Q13255)

>  <Readout label>
pIC50

>  <Observed>
> 7.30

$$$$
>  <Compound>
CN(C)c1ncnc2sc3c(=O)n(-c4ccc(C5CC5)cc4)cnc3c12 [137D]

>  <Target desc>
hmGluR1 receptor (Homo sapiens, UniProt Q13255)

>  <Readout label>
pIC50

>  <Observed>
> 7.30

$$$$
>  <Compound>
CCNc1ccnc2sc3c(=O)n(-c4cccc(F)c4)cnc3c12 [28CQ]

>  <Target desc>
hmGluR1 receptor (Homo sapiens, UniProt Q13255)

>  <Readout label>
pIC50

>  <Observed>
> 7.30

$$$$
>  <Compound>
CN(C)c1ncnc2sc3c(=O)n(-c4ccc5occc5c4)cnc3c12 [95AP]

>  <Target desc>
hmGluR1 receptor (Homo sapiens, UniProt Q13255)

>  <Readout label>
pIC50

>  <Observed>
> 7.30

$$$$
>  <Compound>
Cc1ccc(-n2cnc3c(sc4nccc(NC5CCCCC5)c43)c2=O)cc1 [28DF]

>  <Target desc>
hmGluR1 receptor (Homo sapiens, UniProt Q13255)

>  <Readout label>
pIC50

>  <Observed>
< 6.00

$$$$
>  <Compound>
O=c1c2sc3nccc(NCCCO)c3c2ncn1-c1ccc2occc2c1 [28BF]

>  <Target desc>
hmGluR1 receptor (Homo sapiens, UniProt Q13255)

>  <Readout label>
pIC50

>  <Observed>
> 7.30

$$$$
>  <Compound>
Cc1ccc(-n2cnc3c(sc4nccc(CN(CC5CC5)CC5CC5)c43)c2=O)cc1 [169B]

>  <Target desc>
hmGluR1 receptor (Homo sapiens, UniProt Q13255)

>  <Readout label>
pIC50

>  <Observed>
< 6.00

$$$$
>  <Compound>
Cc1ccc(-n2cnc3c(sc4ncc(C(=O)N5CCNCC5)cc43)c2=O)cc1 [205B]

>  <Target desc>
hmGluR1 receptor (Homo sapiens, UniProt Q13255)

>  <Readout label>
pIC50

>  <Observed>
< 6.00

$$$$

Entry Cc1ccc(-n2cnc3c(sc4nccc(NC5CC5)c43)c2=O)cc1F [131L] ; assay system hmGluR1 receptor (Homo sapiens, UniProt Q13255); pIC50 recorded at > 7.30

The compound CNc1ccnc2sc3c(=O)n(-c4cccc(Br)c4)cnc3c12 [28CS] , when measured on hmGluR1 receptor (Homo sapiens, UniProt Q13255), yielded pIC50 of 6.82 to 7.30

Entry C=C(C)CNc1ncnc2sc3c(=O)n(-c4ccc(F)cc4)cnc3c12 [95FI] under hmGluR1 receptor (Homo sapiens, UniProt Q13255) had pIC50 of > 7.30

Query CN(C)c1ccnc2sc3c(=O)n(-c4ccc(C5CC5)c(F)c4)cnc3c12 [137G] on hmGluR1 receptor (Homo sapiens, UniProt Q13255); pIC50 returned: > 7.30

###

We begin with a simple list: items and their reported pIC50.
Biological target: hmGluR1 receptor (Homo sapiens)
Construct: expressed in transfected cells
Experiment: IC50 determination: intracellular calcium mobilization (FLIPR) upon Quisqualate stimulation in CHO cells stably expressing hmGluR1
Format: cell-based
Details: against Quisqualate 1 μM (EC80), class symbols, read-out: mGIuR 1 IC50
Protocol: A CHO cell line stably expressing hmGluR1 receptor was established. One day prior to assay, cells were split in growth media at concentration of 50,000 cells/well in a volume of 100 μl and seeded into black clear-bottom 96-well plates. After two to six hours, when cells were well attached to the plate, growth medium was replaced with assay medium (100 μL) consisting of DMEM high glucose, supplemented with GPT (1 U/mL) and Sodium pyruvate, 1 mM. […]
pIC50: −log10 of the molar value.

Worked cases, pIC50 given:
>  <Molecule>
CCNc1ccnc2sc3c(=O)n(-c4ccc(O)cc4)cnc3c12 [131B]

>  <pIC50>
> 7.30

$$$$
>  <Molecule>
CCCc1nc2c(sc3nccc(N(C)C)c32)c(=O)n1-c1ccc(OC)cc1 [116F]

>  <pIC50>
6.00 to 6.82

$$$$

From here, focus on the item given below.
Given item CCN(C)c1ncnc2sc3c(=O)n(-c4ccc5ncsc5c4)cnc3c12 [95I] , the value recorded as its pIC50 is > 7.30
